Target: T1, dog iRhom2 full length wild type, C-terminally tagged with 3 consecutive copies of the T7 epitope (dog, UniProt Q00M95 1-827)
T1 construct: whole, on cells; also called Dog-iR2-FL-WT-T7
T1 sequence: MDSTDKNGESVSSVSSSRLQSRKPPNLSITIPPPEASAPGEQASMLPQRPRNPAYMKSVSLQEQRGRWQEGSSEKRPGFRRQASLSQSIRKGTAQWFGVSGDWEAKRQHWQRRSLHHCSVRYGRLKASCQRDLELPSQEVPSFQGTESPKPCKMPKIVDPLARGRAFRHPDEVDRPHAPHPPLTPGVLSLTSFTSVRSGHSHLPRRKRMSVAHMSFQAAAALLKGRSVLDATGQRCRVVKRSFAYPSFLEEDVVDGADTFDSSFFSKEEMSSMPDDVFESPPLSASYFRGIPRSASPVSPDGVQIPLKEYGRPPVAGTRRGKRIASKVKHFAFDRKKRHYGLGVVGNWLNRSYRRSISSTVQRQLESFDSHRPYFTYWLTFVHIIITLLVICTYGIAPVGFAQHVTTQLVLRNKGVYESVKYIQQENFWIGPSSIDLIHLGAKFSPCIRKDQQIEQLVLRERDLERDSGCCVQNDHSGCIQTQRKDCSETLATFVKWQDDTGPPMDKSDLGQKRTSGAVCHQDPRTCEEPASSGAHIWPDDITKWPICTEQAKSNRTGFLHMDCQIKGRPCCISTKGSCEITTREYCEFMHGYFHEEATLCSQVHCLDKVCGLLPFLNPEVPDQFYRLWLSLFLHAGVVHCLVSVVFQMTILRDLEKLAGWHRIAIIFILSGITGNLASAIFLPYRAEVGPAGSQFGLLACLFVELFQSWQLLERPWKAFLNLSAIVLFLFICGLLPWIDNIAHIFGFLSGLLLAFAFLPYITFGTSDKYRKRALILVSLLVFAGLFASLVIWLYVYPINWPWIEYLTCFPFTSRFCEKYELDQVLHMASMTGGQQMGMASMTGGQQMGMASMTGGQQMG
Assay: FACS, MEF-DKO-Dog-iR2-FL-WT-T7 cells
Experimental: In brief, immortalized MEF-DKO-EV control cells, MEF-DKO-rhesus-iR2-FL-WT-T7 cells, MEF-DKO-cyno-iR2-FL-WT-T7 cells, MEF-DKO-dog-iR2-FL-WT-T7 cells and MEF-DKO-rabbit-iR2-FL-WT-T7 cells, as well as their respective iRhom1 counterparts, were harvested with 10 mM EDTA in PBS, washed and resuspended in FACS buffer (PBS, 3% FBS, 0.05% sodium azide), and seeded in Nunc U-bottom 96-well plates (Thermo Fisher Scientific, USA) at approximately 3×10⁵ cells per well. […]

| binder | binding result |
| --- | --- |
| antibody 49 (antibody, V domains shown, Mouse IgG, kappa light chain; also called clone #49) VH: QVTLKESGPGILQPSQTLSLTCSFSGFSLSTFGMGVGWIRQPSGKGLEWLAHIWWDDDKYYNPALQSRLTVSKDTAKNQVFLKIANVDTADTAIYYCARVGNYGSNYWYFAVWGTGTTVTVSS VL: QIVLTQSPAIMSASPGEKVTMTCSASSSVSYMYWYQQKPGSSPRLLIYDTSNLASGVPVRFSGSGSGTSYSLTISRMEAEDAATYYCQQWNSYPLTFGAGTKLELK | binds |
| antibody 44 (antibody, V domains shown, Mouse IgG, kappa light chain; also called clone #44; m44) VH: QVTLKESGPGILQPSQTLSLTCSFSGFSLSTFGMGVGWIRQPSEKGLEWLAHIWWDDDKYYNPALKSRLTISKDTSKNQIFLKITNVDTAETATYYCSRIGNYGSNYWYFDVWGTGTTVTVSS VL: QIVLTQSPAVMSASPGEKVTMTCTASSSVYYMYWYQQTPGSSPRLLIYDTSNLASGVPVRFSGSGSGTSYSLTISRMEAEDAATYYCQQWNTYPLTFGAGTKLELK | binds |
| antibody 43 (antibody, V domains shown, Mouse IgG, kappa light chain; also called clone #43) VH: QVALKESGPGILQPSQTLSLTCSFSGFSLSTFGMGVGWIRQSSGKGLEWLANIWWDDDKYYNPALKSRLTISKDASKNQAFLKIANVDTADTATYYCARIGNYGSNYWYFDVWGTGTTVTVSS VL: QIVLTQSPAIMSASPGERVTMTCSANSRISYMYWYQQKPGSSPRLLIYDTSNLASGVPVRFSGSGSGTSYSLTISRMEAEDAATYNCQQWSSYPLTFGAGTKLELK | binds |
